Numbers sourced from PubChem BioAssay AID1963974.

test system: 648629-189-R-J1-PDC spheroids with HUVEC/MSC, viability; experiment: Anticancer human tumor 648629-189-R-J1-PDC patient-derived bladder carcinoma cell line growth inhibition [PI3K]; settings: second compound 0.316 µM; first compound 3 µM; stronger effect = lower value;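 note: spheroids exposed to agents for seven days before reading; percent of vehicle control luminescence where 100% = DMSO treated spheroids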
experimental readout: viability, T/C (%)
// return numeric value only (unit: %, not printed)

Measured viability, T/C of Cn1cnc2c(F)c(Nc3ccc(Br)cc3Cl)c(C(=O)NOCCO)cc21 + Cc1nc(NC(=O)N2CCCC2C(N)=O)sc1-c1ccnc(C(C)(C)C(F)(F)F)c1 : 72.4

Measured viability, T/C of Cn1cnc2c(F)c(Nc3ccc(Br)cc3Cl)c(C(=O)NOCCO)cc21 + COc1c(OCCCN2CCOCC2)ccc2c3n(c(=NC(=O)c4cnc(N)nc4)nc12)CCN3 : 32.3

Measured viability, T/C of Cn1cnc2c(F)c(Nc3ccc(Br)cc3Cl)c(C(=O)NOCCO)cc21 + CC(Nc1ncnc2nc[nH]c12)c1cc2cccc(Cl)c2c(=O)n1-c1ccccc1 : 79.2

Measured viability, T/C of Cn1cnc2c(F)c(Nc3ccc(Br)cc3Cl)c(C(=O)NOCCO)cc21 + CC(Nc1ccc2c(c1)OCCn1cc(N3C(=O)OCC3C(F)F)nc1-2)C(N)=O : 69.1
